IC50 data for Lysosomal alpha-glucosidase (Homo sapiens) follow.
Numbers only, in µM.

O=C1NC(=S)S/C1=C\c1ccc(/C=N/Nc2nc(-c3ccc(Br)cc3)cs2)cc1; 32.2

Consider the following items and state reported IC50 for each.
1. O=C1NC(=S)S/C1=C\c1ccc(/C=N/Nc2nc(-c3ccc(F)cc3)cs2)cc1
2. O=C1NC(=S)S/C1=C\c1ccc(/C=N/Nc2nc(-c3ccc(Cl)cc3)cs2)cc1
3. O=C1NC(=S)S/C1=C\c1ccc(/C=N/Nc2nc(-c3ccccc3)cs2)cc1

[148, 33.2, 55.2]

Please supply the value of reported IC50 for the item O=C(O)CN1C(=O)/C(=C/c2ccc(/C=N/Nc3nc(-c4ccc(Br)cc4)cs3)cc2)SC1=S 24.2
